test system: NCI-H226 lung; test: NCI tumour cell line growth inhibition, 48 h
reported.metric: GI50

> print(dat)
                           structure.string  reported.metric  reported
1  CC1(C)CC[C@]2(C(=O)NCCNCCN)CC[C@]3(C)C(=CC[C@@H]4[C@@]5(C)CCC(=O)C(C)(C)[C@@H]5CC[C@]43C)[C@@H]2C1             GI50     11 µM
2                Oc1c(CN2CCCCC2)ccc2cccnc12             GI50   2.41 µM
3        Cc1cc2[nH]c(=O)c3c4ncccc4cn3c2cc1C             GI50   6.04 µM
4  CC1(C)N=C(N)N=C(N)N1c1cccc(CCCCc2ccc(Cl)c(S(=O)(=O)F)c2)c1             GI50   8.38 µM
5  N#C[S-].[Ce+3].c1ccc(-c2ccccn2)nc1.c1ccc(-c2ccccn2)nc1.c1ccc(-c2ccccn2)nc1             GI50     18 µM

###

system: HCT-116 colon; assay: NCI tumour cell line growth inhibition, 48 h
reported.metric: TGI

> print(dat)
                                    compound  reported
 1  Cc1cn(C(CO)OC(CO)CN(O)C2C3CC4CC(C3)CC2C4)c(=O)[nH]c1=O (stereo not given)  > 100 µM
 2      O=c1oc2ccc(F)cc2c(=O)n1-c1ccc(I)cc1F   2.03 µM
 3        Cc1cc2[nH]c(=O)c3c4ncccc4cn3c2cc1C   4.53 µM
 4  CC(=O)OCCCCn1nncc1Cn1ccc(=O)n(Cc2cnnn2CCCCOC(C)=O)c1=O  > 100 µM
 5  COc1ccccc1N1C(=O)CSC1c1cccc(Oc2ccccc2)c1 (stereo not given)   31.5 µM
 6  Cn1cnc(SC2=CC(=O)C=C3S[C@H]4C[C@@]23c2c(c(O)c3c5c2=NCCC=5C=N3)N4)c1CC(N)C(=O)O (stereo not given in full)   4.88 µM
 7  CC12CP(=O)(O)CC1C2(Cl)Cl (stereo not given)  > 100 µM
 8     COc1ccc2nc(N/N=C/c3ccc(C)s3)cc(C)c2c1   35.9 µM
 9  CCOC(=O)NC(=O)c1cn(CCN(CCO)C(=O)NCCCCCCNC(=O)N(CCO)CCn2cc(C(=O)NC(=O)OCC)c(=O)[nH]c2=O)c(=O)[nH]c1=O  > 100 µM
10  CC(C)(Oc1ccc2c(=O)cc(-c3ccc(Cl)cc3)oc2c1)C(=O)Nc1c(Cl)cccc1Cl  > 100 µM
11  O=C(O)c1nn(-c2ccc(Cl)cc2)c2c1C(=O)c1ccccc1C2=O  > 100 µM
12   CN1CCN(c2ccncc2S(=O)(=O)N2CCN(C)CC2)CC1  > 100 µM
13    COc1ccc2c(c1)C(=O)/C(=C/c1ccc(O)cc1)O2   18.2 µM
14                         Nc1nncc2n[nH]nc12  > 100 µM
15  C/C(=N\N)C(CN1CCOCC1)C(c1ccccc1)c1c(O)c2ccccc2oc1=O (stereo not given)  > 100 µM
16                              O=c1cccccc1O  > 100 µM
17      COc1ccc(/C(=N/OCCCC(=O)O)c2cccs2)cc1  > 100 µM
18    N=C1c2ccccc2C(=O)c2c(NCCNCCO)ccc(O)c21     15 µM
19  CSc1nc2c(nc(N)n2C2OC(CO)C(O)C(O)C2O)c(=O)[nH]1 (stereo not given)  > 100 µM
20    C/C(CC(O)(C(F)(F)F)C(F)(F)F)=N\NC(N)=S   > 10 µM

Values from PubChem BioAssay (NCI)
